From: ChEMBL document CHEMBL1153043

Test: Toxicity in ip dosed Kunming mouse
Format: organism-based
Settings: in vivo
property: LD50 (mg/kg)
Give bare numbers, in mg/kg.

Input `CC(=O)c1cc2ccccc2s1` . Output LD50: 1580
